Reference for the values: ChEMBL document CHEMBL3988442

# Test system: Wolbachia pipientis
# test protocol: Anti-Wolbachia Cell-Based Screen
# Type: functional
# Set-up: scale not given: in the data most compounds retested in dose-response had high values
# recorded conditions: 5 µM
Hit rate of the full screen: of about 48,000 compounds, about 13,000 (27%) showed an effect of 50% or more. The list shows a part of the results.
Can you tell me Percent Effect for the items I'm about to list?
# unit: % | format: bare number

stdin: What measured Percent Effect is associated with CC(C)CC(C)(CNC(=O)c1cnccn1)NC(=O)c1cnccn1 (stereo not drawn) on Wolbachia pipientis?
stdout: 15.43

stdin: What measured Percent Effect is associated with "CSc1nc(C2CC2)nc(C)c1C(=O)NCc1cc(C)on1" on Wolbachia pipientis?
stdout: -0.6929

stdin: What measured Percent Effect is associated with Cc1ccc(S(=O)(=O)N2CC(C)Oc3ncccc32)c(C)c1 (stereo not drawn) on Wolbachia pipientis?
stdout: -17.54

stdin: What measured Percent Effect is associated with CC(NC(=O)c1cccc[n+]1[O-])C1CC1 (stereo not drawn) on Wolbachia pipientis?
stdout: -12.99

stdin: What measured Percent Effect is associated with "Cc1noc(C)c1CN1CCC(NC(=O)OC(C)(C)C)CC1" on Wolbachia pipientis?
stdout: -1.462

stdin: What measured Percent Effect is associated with "O=C(NCc1nncn1C1CC1)C1(c2ccccc2)CCOCC1" on Wolbachia pipientis?
stdout: 1.62

stdin: What measured Percent Effect is associated with "COC(=O)c1c(Cl)c(C2CC2)nc2onc(C)c12" on Wolbachia pipientis?
stdout: 129

stdin: What measured Percent Effect is associated with COCc1ccccc1C(=O)N1CCC(CNC(=O)OC(C)(C)C)C1 (stereo not drawn) on Wolbachia pipientis?
stdout: -8.221

stdin: What measured Percent Effect is associated with "Cc1nnc(CN(Cc2ccccc2Br)C2CC2)o1" on Wolbachia pipientis?
stdout: -0.8138

stdin: What measured Percent Effect is associated with "NC(=O)COc1ccc(CNC(=O)CN2CCc3ccccc32)cc1" on Wolbachia pipientis?
stdout: -10.38

stdin: What measured Percent Effect is associated with "CC(C)=CCN1C[C@H]2CC[C@@H]1CN(C(=O)Cn1c(C)cc(C)nc1=O)C2" on Wolbachia pipientis?
stdout: -7.163

stdin: What measured Percent Effect is associated with CN(C)CCNC(=O)c1sc2ccccc2c1C1CCC(CN)CC1.Cl (stereo not drawn) on Wolbachia pipientis?
stdout: 88.67

stdin: What measured Percent Effect is associated with "Cc1cnn(Cc2cc(F)ccc2F)c1NC(=O)CNC(=O)C1CC1" on Wolbachia pipientis?
stdout: -28.4

stdin: What measured Percent Effect is associated with Cc1ncc(CNC(CCO)C2CCCCC2)s1 (stereo not drawn) on Wolbachia pipientis?
stdout: -8.339

stdin: What measured Percent Effect is associated with "Cc1nc(C2CCCCC2)sc1C(=O)O" on Wolbachia pipientis?
stdout: -7.894

stdin: What measured Percent Effect is associated with "O=C(NCCOc1ccc(C(F)(F)F)cn1)c1ccoc1" on Wolbachia pipientis?
stdout: 0.7109

stdin: What measured Percent Effect is associated with "CC(C)NC(=O)c1sc2ccccc2c1[C@H]1CC[C@H](CN)CC1.Cl" on Wolbachia pipientis?
stdout: 141.4

stdin: What measured Percent Effect is associated with Cc1nc(CN2CCCC(CCc3ccccc3C(F)(F)F)C2)co1 (stereo not drawn) on Wolbachia pipientis?
stdout: 3.253
